Data provenance is patent US20100249071A1.

Exercise: for every item that follows, state its recorded pEC50.
target: S1P3 (Homo sapiens, UniProt Q99500); construct: host or cells: HEK293 (transient transfection); assay: S1P3 Tango β-arrestin recruitment assay in HEK293 cells (Assay 5); type: cell-based; settings: read-out: Assay 5 EC50
Sequence (P32121 whole entry): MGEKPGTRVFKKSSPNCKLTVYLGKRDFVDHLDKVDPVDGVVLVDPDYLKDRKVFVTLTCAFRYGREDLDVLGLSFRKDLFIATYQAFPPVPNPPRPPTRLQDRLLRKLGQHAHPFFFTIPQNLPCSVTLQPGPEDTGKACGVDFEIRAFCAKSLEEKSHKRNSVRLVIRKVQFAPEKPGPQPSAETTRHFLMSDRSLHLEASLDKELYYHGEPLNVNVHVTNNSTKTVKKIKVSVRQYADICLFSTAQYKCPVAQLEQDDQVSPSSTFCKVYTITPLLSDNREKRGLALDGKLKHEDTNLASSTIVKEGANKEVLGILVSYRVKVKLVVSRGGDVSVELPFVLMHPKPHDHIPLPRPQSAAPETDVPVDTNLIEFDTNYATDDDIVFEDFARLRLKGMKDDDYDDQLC
Sequence (Q99500 whole entry): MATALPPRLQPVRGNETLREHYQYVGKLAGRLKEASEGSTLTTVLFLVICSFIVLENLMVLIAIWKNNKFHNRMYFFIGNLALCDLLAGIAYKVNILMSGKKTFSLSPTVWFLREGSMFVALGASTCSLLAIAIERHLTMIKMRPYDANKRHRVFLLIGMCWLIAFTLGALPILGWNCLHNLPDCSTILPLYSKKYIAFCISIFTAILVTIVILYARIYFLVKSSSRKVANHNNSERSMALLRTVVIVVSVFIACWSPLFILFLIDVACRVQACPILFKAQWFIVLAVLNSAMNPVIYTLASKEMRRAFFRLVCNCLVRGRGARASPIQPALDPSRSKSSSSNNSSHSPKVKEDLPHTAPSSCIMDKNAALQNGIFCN
pEC50: −log10 of the molar value.

Lab note: measured pEC50 of CC(C)Nc1ccc(-c2nnc(-c3cc(F)c(OCC(N)CO)cc3Cl)s2)cn1 (centres unmarked) [Entry 44] was < 5.00

pEC50 recorded for this molecule, CC(C)Oc1ccc(-c2nnc(-c3cc(F)c(OC[C@H](N)COP(=O)(O)O)cc3Cl)s2)cc1Cl [Entry 13] , is ≥ 6.60

The recorded pEC50 for entry Cc1cc(-c2nnc(-c3cc(F)c(OC[C@H](N)[C@H](C)OP(=O)(O)O)cc3Cl)s2)ccc1OC(C)C [Entry 104] equals < 6.60

Summary for this molecule, CC(C)Nc1ncc(-c2nnc(-c3cc(F)c(OC[C@H](N)CO)cc3Cl)s2)cc1Cl [Entry 81] : pEC50 is < 5.00

Measured pEC50, Cc1cc(-c2nnc(-c3cc(F)c(OC[C@H](N)[C@@H](C)O)cc3Cl)s2)cc(NC(C)C)n1 [Entry 62] : < 5.00

Lookup result for CC(C)Oc1ccc(-c2nnc(-c3ccc(OC[C@H](N)CO)cc3Cl)s2)cc1Cl [Entry 34] ; measured pEC50: < 5.00

Please fill in: pEC50 reported for CC(C)Nc1ccc(-c2nnc(-c3cc(F)c(OC[C@@H](N)COP(=O)(O)O)cc3Cl)s2)cn1 [Entry 47] = ≥ 6.60

Reported pEC50 of CCOc1ccc(-c2nnc(-c3cc(F)c(OC[C@H](N)CO)cc3Cl)s2)cc1C#N [Entry 76] : < 5.00

The molecule CC(C)Oc1ccc(-c2nnc(-c3cc(F)c(OC[C@H](N)[C@@H](C)OP(=O)(O)O)cc3Cl)s2)cc1C#N [Entry 50] showed pEC50 equal to ≥ 6.60

Record CC(C)Oc1ccc(-c2nnc(-c3cc(F)c(OC[C@H](N)CO)cc3Cl)s2)cc1C(F)(F)F [Entry 18] . Reported pEC50: < 5.00

The reported pEC50 of the molecule COCCOc1ccc(-c2nnc(-c3cc(F)c(OC[C@H](N)CO)cc3Cl)s2)cc1C#N [Entry 78] was < 5.00

The molecule listed as Cc1cc(-c2nnc(-c3cc(F)c(OC[C@@H](N)[C@H](C)O)cc3Cl)s2)cc(NC(C)C)n1 [Entry 98] shows pEC50 equal to ≥ 6.60

Briefly, pEC50 measured for CC(C)Nc1ccc(-c2nnc(-c3cc(F)c(OC[C@H](N)[C@@H](C)OP(=O)(O)O)cc3Cl)s2)cn1 [Entry 85] : < 5.00

// field: pEC50; key: CC(C)Oc1ccc(-c2nnc(-c3cc(F)c(OC[C@H](N)CO)cc3Cl)s2)nc1Cl [Entry 22] ; value = < 5.00

Entry N[C@H](CO)COc1cc(Cl)c(-c2nnc(-c3cc(F)cc(Br)c3)s2)cc1F [Entry 24] — recorded pEC50 = < 5.00

Item: CC(C)Nc1ccc(-c2nnc(-c3cc(F)c(OC[C@@H](N)CO)cc3Cl)s2)cn1 [Entry 77] | pEC50: < 5.00

// pEC50 lookup, molecule = CC(C)Oc1ccc(-c2nnc(-c3cc(F)c(OC[C@@H](N)[C@@H](C)OP(=O)(O)O)cc3Cl)s2)cc1Cl [Entry 70] , result: ≥ 6.60

Consider CC(C)Oc1ccc(-c2nnc(-c3cc(F)c(OCC(N)CO)cc3Cl)s2)cn1 (centres unmarked) [Entry 19] . Its measured pEC50 is < 6.60

Kindly note the recorded pEC50 for CC(C)Oc1ccc(-c2nnc(-c3cc(F)c(OC[C@H](N)CO)cc3Cl)s2)cc1Cl [Entry 1] , which is < 5.00

Recorded result, N#Cc1cc(-c2nnc(-c3cc(F)c(OC[C@H](N)CO)cc3Cl)s2)ccc1OC1COC1 [Entry 49] , pEC50: < 5.00

molecule CC(C)N(C)c1cc(-c2nnc(-c3cc(F)c(OCC(N)CO)cc3Cl)s2)cc(Cl)n1 (centres unmarked) [Entry 5] , pEC50 observed: ≥ 6.60

For this molecule ( Cc1nc(-c2nnc(-c3cc(F)c(OC[C@H](N)[C@H](C)O)cc3Cl)s2)ccc1NC(C)C [Entry 105] ), measured pEC50 is < 6.60

// recorded pEC50 for Cc1cc(-c2nnc(-c3cc(F)c(OC[C@H](N)[C@@H](C)O)cc3Cl)s2)ccc1OC(C)C [Entry 60] : < 5.00

Documented pEC50 of CC(C)Oc1ccc(-c2nnc(-c3cc(F)c(OC[C@H](N)COP(=O)(O)O)cc3Cl)s2)cc1Br [Entry 29] : ≥ 6.60

Note to self: pEC50 recorded for Cc1cc(-c2nnc(-c3cc(F)c(OC[C@H](N)[C@H](C)O)cc3Cl)s2)cc(NC(C)C)n1 [Entry 63] was < 6.60

Short answer for CC(C)Oc1ccc(-c2nnc(-c3cc(F)c(OC[C@@H](N)CO)cc3Cl)s2)nc1Cl [Entry 33] : pEC50 was ≥ 6.60

----------
target: UniProt:Q9H228; test: hS1P5R GTPγS binding assay (Assay 4)
Sequence (Q9H228 whole entry): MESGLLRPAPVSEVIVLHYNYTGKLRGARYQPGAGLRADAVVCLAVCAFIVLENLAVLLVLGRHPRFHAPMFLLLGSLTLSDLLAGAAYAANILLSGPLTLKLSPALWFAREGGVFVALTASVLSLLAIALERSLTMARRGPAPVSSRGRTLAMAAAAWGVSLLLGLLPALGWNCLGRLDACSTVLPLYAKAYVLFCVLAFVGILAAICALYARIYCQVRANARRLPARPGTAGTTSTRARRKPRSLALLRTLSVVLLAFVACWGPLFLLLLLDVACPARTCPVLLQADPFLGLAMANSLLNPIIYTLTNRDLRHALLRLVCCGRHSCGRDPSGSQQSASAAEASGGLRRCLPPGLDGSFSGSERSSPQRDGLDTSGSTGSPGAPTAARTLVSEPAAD
pEC50: −log10 of the molar value.
experimentalEndpoint: pEC50

Record summary for CC(C)Nc1ccc(-c2nnc(-c3cc(F)c(OC[C@@H](N)CO)cc3Cl)s2)cc1Cl : reported pEC50 = 7.30 to 8.00

The reported value for CC(C)Oc1ccc(-c2nnc(-c3cc(F)c(OC[C@H](N)CO)cc3Cl)s2)cc1Br in terms of pEC50 is 7.30 to 8.00

Query CC(C)Nc1ccc(-c2nnc(-c3cc(F)c(OC[C@H](N)COP(=O)(O)O)cc3Cl)s2)cn1 yields pEC50 of ≥ 8.00

----------
Please provide measured Lymphocyte Counts (p < 0.05) for the entries that follow.
tested on: circulating lymphocytes; experiment: Lymphocyte PD assay in rats; assay type: in vivo, rat; details: 24 hours after oral single dose at 3 mg/kg, Female CD rats (Sprague Dawley), compared to vehicle-only group
Number in %, nothing else.

According to the records, this molecule CC(C)Oc1ccc(-c2nnc(-c3cc(F)c(OC[C@H](N)[C@@H](C)O)cc3Cl)s2)cc1Cl displays Lymphocyte Counts (p < 0.05) of −89

Looking up CC(C)Nc1ccc(-c2nnc(-c3cc(F)c(OC[C@@H](N)CO)cc3Cl)s2)cn1 , I found its Lymphocyte Counts (p < 0.05) recorded as −94

Value of Lymphocyte Counts (p < 0.05) reported for the molecule CC(C)Oc1ccc(-c2nnc(-c3cc(F)c(OC[C@H](N)CO)cc3Cl)s2)cc1C#N is −93

Record CC(C)Oc1ccc(-c2nnc(-c3cc(F)c(OC[C@H](N)CO)cc3Cl)s2)cc1Cl . Reported Lymphocyte Counts (p < 0.05): −80

Item: CC(C)Oc1ccc(-c2nnc(-c3cc(F)c(OC[C@H](N)[C@H](C)O)cc3Cl)s2)cc1Cl | Lymphocyte Counts (p < 0.05): −86

----------
molecular target: S1P1 (Homo sapiens); construct: host or cells: U2OS; test: Tango β-arrestin recruitment assay in U2OS cells (Assay 2b); assay type: cell-based; details: read-out: Assay 2b EC50
Sequence (P32121 whole entry): as the sequence (P32121 whole entry) above
Sequence (P21453 whole entry): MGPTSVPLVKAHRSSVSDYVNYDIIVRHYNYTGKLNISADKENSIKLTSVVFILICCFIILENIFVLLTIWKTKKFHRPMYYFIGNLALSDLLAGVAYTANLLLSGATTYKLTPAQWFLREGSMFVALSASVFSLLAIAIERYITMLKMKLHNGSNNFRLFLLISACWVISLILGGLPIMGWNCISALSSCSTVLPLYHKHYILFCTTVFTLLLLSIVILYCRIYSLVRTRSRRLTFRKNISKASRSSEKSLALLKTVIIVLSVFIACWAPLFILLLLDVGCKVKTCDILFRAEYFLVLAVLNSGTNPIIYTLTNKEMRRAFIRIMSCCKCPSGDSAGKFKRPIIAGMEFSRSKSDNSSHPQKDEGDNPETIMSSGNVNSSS
Give measured EC50 for each item. Keep answers brief.

Lab note: N[C@H](CO)COc1cc(Cl)c(-c2nnc(-c3cc(Cl)cc(Br)c3)s2)cc1F gave EC50 of 250 to 2800 nM

Item: Cc1cc(-c2nnc(-c3cc(F)c(OC[C@@H](N)[C@@H](C)O)cc3Cl)s2)cnc1NC(C)C | EC50: ≤ 10 nM

The recorded EC50 for CC(C)Nc1ccc(-c2nnc(-c3cc(F)c(OC[C@H](N)CO)cc3Cl)s2)cn1 is 10 to 50 nM

EC50 for CC(C)Oc1ccc(-c2nnc(-c3cc(F)c(OC[C@H](N)CO)cc3Cl)s2)cc1C#N is ≤ 10 nM

Looking up Cc1cc(-c2nnc(-c3cc(F)c(OC[C@H](N)[C@H](C)O)cc3Cl)s2)ccc1OC(C)C , I see its EC50 listed as 50 to 250 nM

So for CC(C)N(C)c1cc(-c2nnc(-c3cc(F)c(OC[C@H](N)CO)cc3Cl)s2)cc(Cl)n1 , the logged EC50 turned out to be 10 to 50 nM

molecule CC(C)Nc1ccc(-c2nnc(-c3cc(F)c(OC[C@H](N)[C@@H](C)OP(=O)(O)O)cc3Cl)s2)cn1 , EC50 observed: ≤ 10 nM

# EC50 (molecule: CC(C)Nc1ccc(-c2nnc(-c3cc(F)c(OC[C@H](N)CO)cc3Cl)s2)cc1Cl ) is 50 to 250 nM

So, CC(C)Nc1cc(-c2nnc(-c3cc(F)c(OC[C@H](N)[C@@H](C)O)cc3Cl)s2)ccn1 ? Its EC50 was 50 to 250 nM

Just so you know, measured EC50 for CC(C)Nc1ccc(-c2nnc(-c3cc(F)c(OC[C@H](N)[C@H](C)O)cc3Cl)s2)cn1 came out at 250 to 2800 nM

Looking up CC(C)Nc1ccc(-c2nnc(-c3cc(F)c(OC[C@@H](N)CO)cc3Cl)s2)cc1Cl , I found its EC50 recorded as ≤ 10 nM

Notebook: CC(C)Oc1ccc(-c2nnc(-c3cc(F)c(OC[C@H](N)[C@H](C)O)cc3Cl)s2)cc1Cl , EC50 read as ≤ 10 nM

So for CC(C)Oc1ccc(-c2nnc(-c3cc(F)c(OC[C@H](N)[C@H](C)OP(=O)(O)O)cc3Cl)s2)cc1Cl , the logged EC50 turned out to be ≤ 10 nM

get_value(item= CC(C)Oc1ccc(-c2nnc(-c3cc(F)c(OCC(N)CO)cc3Cl)s2)nc1Cl (centres unmarked) , readout=EC50) returns ≤ 10 nM

Noted for CC(C)Oc1ncc(-c2nnc(-c3cc(F)c(OC[C@H](N)CO)cc3Cl)s2)cc1Cl : its EC50 reads 250 to 2800 nM

CC(C)Oc1ccc(-c2nnc(-c3cc(F)c(OC[C@@H](N)[C@@H](C)O)cc3Cl)s2)cc1Cl yielded EC50 of ≤ 10 nM

What the record says about CC(C)Oc1ccc(-c2nnc(-c3cc(F)c(OC[C@@H](N)COP(=O)(O)O)cc3Cl)s2)cc1Br : EC50 is ≤ 10 nM
